IC50 values by entry
- tested target: muscarinic M2 receptor (Homo sapiens (Human))
- Sequence (P08172 whole entry): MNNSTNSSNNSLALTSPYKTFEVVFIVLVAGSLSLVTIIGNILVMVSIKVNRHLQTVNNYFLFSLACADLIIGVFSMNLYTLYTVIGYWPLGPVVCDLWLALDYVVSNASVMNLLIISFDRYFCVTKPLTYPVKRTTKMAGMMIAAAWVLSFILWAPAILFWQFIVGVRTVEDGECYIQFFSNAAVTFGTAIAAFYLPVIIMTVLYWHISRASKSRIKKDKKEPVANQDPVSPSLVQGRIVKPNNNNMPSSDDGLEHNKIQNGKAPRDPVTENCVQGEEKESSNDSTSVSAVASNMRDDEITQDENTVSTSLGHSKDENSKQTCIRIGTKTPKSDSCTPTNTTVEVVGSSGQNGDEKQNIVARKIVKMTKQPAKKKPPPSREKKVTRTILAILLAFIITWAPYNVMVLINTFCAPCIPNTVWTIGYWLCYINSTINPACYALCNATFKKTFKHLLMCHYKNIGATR
- assay info: Muscarinic M2 receptor functional assay, antagonist effect (assay 2)
- condition label: cAMP, 1 μM acetylcholine
Field format: number, assumed µM, no unit text.

1) CC(C)N(C(=O)c1cc(F)ccc1-n1cc(C(=O)C2CCN(C(=O)[C@H]3NC[C@@H]4C[C@@H]43)CC2)c2ccncc21)C(C)C [Example 19]
21.3

Name the recorded IC50 for Cc1c(C(=O)C2CCN(C(=O)[C@@H]3CCC4(CC4)N3)CC2)c2ccncc2n1-c1ccc(F)cc1C(=O)N1[C@H](C)COC[C@H]1C (single isomer, unassigned) [Example 58-2] .
8.6

// IC50 lookup, key: CC(C)N(C(=O)c1cc(F)ccc1-n1cc(C(=O)C2CCN(C(=O)[C@H]3NC4CCC3CC4)CC2)c2ccncc21)C(C)C [Example 20]
5.2
